tested on: behaviorally-diagnosed psychiatric conditions (DSM categories); set-up: species or system human; conditions: in vivo
readout.kind: use code of agent in 302.71 Hypoactive Sexual Desire Disorder

# example entries with known answers
molecule: CC(NC(C)(C)C)C(=O)c1cccc(Cl)c1 (centres unmarked) [BUPROPRION (REGULAR TABS)]
reading: N

molecule: CC(NC(C)(C)C)C(=O)c1cccc(Cl)c1 (centres unmarked) [BUPROPRION (LONG ACTING)]
reading: N

molecule: N[C@@H]1C[C@H]1c1ccccc1 [PARNATE, reference compound]
reading: N

molecule: NNCCc1ccccc1
reading: N

Now for a further molecule.
Challenge: Give reported use code of agent in 302.71 Hypoactive Sexual Desire Disorder value for O=C(NCCN1CCOCC1)c1ccc(Cl)cc1 [MOCLOBEMIDE]
Response given: N

These measurements were taken from patent US7962204B2.
